Items are presented alongside their recorded inhibition.
- ASSAY TARGET: Cholecystokinin receptor type A (Homo sapiens)
- MEASUREMENT NOTES: SafetyScreen: CCK1 (CCKA) Human Cholecystokinin GPCR Binding Agonist Radioligand LeadHunter Assay, catalogue number: 39
- CONDITIONS USED: Test compound concentration 10.0 uM
Hi! Could you send only the number? It should be in %, unit omitted.

1) CC(C)[C@H](Nc1ncnc2[nH]c(-c3cnn(C)c3C#N)cc12)c1ccc2c(n1)OCCO2: 1

inhibition lookup needed for CNC(=O)Cn1cc(-c2cc3c(N[C@@H](c4ccc5c(c4)S(=O)(=O)CCC5)C(C)C)ncnc3[nH]2)cn1 , thanks.
-4

Query (compound): CC(C)[C@H](Nc1ncnc2[nH]ccc12)c1ccc2c(c1)S(=O)(=O)CCC2 ; field requested: inhibition
-2

Fill in: inhibition of CC(C)[C@@H](Nc1ncnc2[nH]c(C(=O)N[C@@H]3CCN(C)C3)cc12)c1ccc2c(c1)S(=O)(=O)CCC2 is ___
7

* * *

Each entry below carries its recorded inhibition.
- ASSAY TARGET: D(2) dopamine receptor (Homo sapiens) (UniProt P14416)
- Sequence (P14416 whole entry): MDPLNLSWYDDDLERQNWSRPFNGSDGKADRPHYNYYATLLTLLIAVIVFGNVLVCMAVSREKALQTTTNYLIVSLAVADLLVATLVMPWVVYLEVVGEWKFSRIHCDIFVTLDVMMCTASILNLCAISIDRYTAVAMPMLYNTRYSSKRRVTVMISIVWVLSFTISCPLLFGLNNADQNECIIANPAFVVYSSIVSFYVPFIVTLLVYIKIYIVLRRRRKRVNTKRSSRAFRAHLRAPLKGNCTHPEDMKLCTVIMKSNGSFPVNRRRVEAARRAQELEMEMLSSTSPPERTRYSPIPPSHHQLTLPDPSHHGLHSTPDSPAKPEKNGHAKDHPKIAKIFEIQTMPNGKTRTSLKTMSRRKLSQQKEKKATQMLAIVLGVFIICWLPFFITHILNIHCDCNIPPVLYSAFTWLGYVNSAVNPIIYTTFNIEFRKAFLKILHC
- MEASUREMENT NOTES: SafetyScreen: D2S Human Dopamine GPCR Binding Agonist Radioligand LeadHunter Assay, catalogue number: 1322
- CONDITIONS USED: Test compound concentration 10.0 uM
Give the value, in units of %, as a plain number.

Below: 5 compounds and their reported inhibition.
1. CC(C)[C@@H](Nc1ncnc2[nH]c(C(=O)N[C@@H]3CCN(C)C3)cc12)c1ccc2c(c1)S(=O)(=O)CCC2: -7
2. CC(C)[C@H](Nc1ncnc2[nH]c(-c3cnn(C)c3C#N)cc12)c1ccc2c(n1)OCCO2: -7
3. COc1ccc([C@H](Cc2nnn[nH]2)NC(=O)c2ncnc3[nH]ccc23)cc1: -4
4. Cn1ncc(-c2cc3c(N[C@@H](c4ccc5c(n4)OCCO5)C(C)(C)C)ncnc3[nH]2)c1C#N: 13
5. CC(C)[C@@H](Nc1ncnc2[nH]c(-c3cnn(C)c3C#N)cc12)c1ccc2c(n1)OCCO2: 3

Please tell me: inhibition of CNCc1cc(-c2cc3c(N[C@@H](c4ccc5c(c4)S(=O)(=O)CCC5)C(C)C)ncnc3[nH]2)co1 , system D(2) dopamine receptor (Homo sapiens) (UniProt P14416)?
-9

Request - read-out inhibition | tested on D(2) dopamine receptor (Homo sapiens) (UniProt P14416) | compound C[C@H](C(=O)O)[C@@H](NC(=O)c1ncnc2[nH]ccc12)c1ccc(Br)cc1
-1

* * *

- ASSAY TARGET: Tyrosine-protein kinase Lck (Homo sapiens) (UniProt P06239)
- Sequence (P06239 2-509 limits assumed): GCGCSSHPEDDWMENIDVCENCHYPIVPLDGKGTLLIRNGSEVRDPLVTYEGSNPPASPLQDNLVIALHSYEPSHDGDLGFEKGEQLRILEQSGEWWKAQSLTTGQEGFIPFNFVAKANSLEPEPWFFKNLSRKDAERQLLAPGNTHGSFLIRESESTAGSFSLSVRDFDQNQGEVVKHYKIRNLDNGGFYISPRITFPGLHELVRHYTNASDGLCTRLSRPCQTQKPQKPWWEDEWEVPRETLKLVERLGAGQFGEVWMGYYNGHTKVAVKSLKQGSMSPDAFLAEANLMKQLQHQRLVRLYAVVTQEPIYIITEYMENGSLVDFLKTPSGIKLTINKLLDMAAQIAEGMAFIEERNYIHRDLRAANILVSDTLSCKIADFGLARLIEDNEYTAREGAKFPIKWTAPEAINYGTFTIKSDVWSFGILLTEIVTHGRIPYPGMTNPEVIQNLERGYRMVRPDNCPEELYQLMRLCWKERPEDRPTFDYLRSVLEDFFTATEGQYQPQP
- MEASUREMENT NOTES: SafetyScreen: Lck Human TK Kinase Enzymatic TR-FRET [Km ATP] LeadHunter Assay, catalogue number: 2906
- Assay type: functional
- CONDITIONS USED: Test compound concentration 10.0 uM
inhibition values for the compounds below.
Include the unit right after the number.

Study these solved cases before continuing.
1) CC(C)[C@H](Nc1ncnc2[nH]ccc12)c1ccc2c(c1)S(=O)(=O)CCC2: 10%
2) CC(C)[C@@H](Nc1ncnc2[nH]c(C(=O)N[C@@H]3CCN(C)C3)cc12)c1ccc2c(c1)S(=O)(=O)CCC2: 15%
3) Cc1nn(C)cc1-c1cc2c(N[C@H](c3ccc4c(c3)S(=O)(=O)CCC4)C(C)C)ncnc2[nH]1: 33%
4) Cn1ncc(-c2cc3c(N[C@@H](c4ccc5c(n4)OCCO5)C(C)(C)C)ncnc3[nH]2)c1C#N: 47%
5) CNC(=O)Cn1cc(-c2cc3c(N[C@@H](c4ccc5c(c4)S(=O)(=O)CCC5)C(C)C)ncnc3[nH]2)cn1: 30%
6) CNCc1cc(-c2cc3c(N[C@@H](c4ccc5c(c4)S(=O)(=O)CCC5)C(C)C)ncnc3[nH]2)co1: 68%
7) CC(C)[C@@H](Nc1ncnc2[nH]c(-c3cnn(C)c3C#N)cc12)c1ccc2c(n1)OCCO2: 34%
8) C[C@H](C(=O)O)[C@@H](NC(=O)c1ncnc2[nH]ccc12)c1ccc(Br)cc1: 4%
9) COc1ccc([C@H](Cc2nnn[nH]2)NC(=O)c2ncnc3[nH]ccc23)cc1: 4%

Please look up its inhibition: CC(C)[C@H](Nc1ncnc2[nH]c(-c3cnn(C)c3C#N)cc12)c1ccc2c(n1)OCCO2
20%

* * *

- ASSAY TARGET: Delta-type opioid receptor (Homo sapiens)
- MEASUREMENT NOTES: SafetyScreen: delta (DOP) Human Opioid GPCR Binding Agonist Radioligand LeadHunter Assay, catalogue number: 114
- CONDITIONS USED: Test compound concentration 10.0 uM
RECORDED ENDPOINT: inhibition (%)
Record the value in %, omitting the unit from your answer.

1. CNCc1cc(-c2cc3c(N[C@@H](c4ccc5c(c4)S(=O)(=O)CCC5)C(C)C)ncnc3[nH]2)co1: 53

Reported inhibition for CC(C)[C@@H](Nc1ncnc2[nH]c(-c3cnn(C)c3C#N)cc12)c1ccc2c(n1)OCCO2 : what is it?
71

So what does the record say about inhibition for Cc1nn(C)cc1-c1cc2c(N[C@H](c3ccc4c(c3)S(=O)(=O)CCC4)C(C)C)ncnc2[nH]1 ?
16

Would you mind telling me what inhibition value was observed for CC(C)[C@H](Nc1ncnc2[nH]ccc12)c1ccc2c(c1)S(=O)(=O)CCC2 ?
30

Query (compound): CC(C)[C@H](Nc1ncnc2[nH]c(-c3cnn(C)c3C#N)cc12)c1ccc2c(n1)OCCO2 ; field requested: inhibition
58

Would you mind telling me what inhibition value was observed for CNC(=O)Cn1cc(-c2cc3c(N[C@@H](c4ccc5c(c4)S(=O)(=O)CCC5)C(C)C)ncnc3[nH]2)cn1 ?
7

inhibition lookup needed for Cn1ncc(-c2cc3c(N[C@@H](c4ccc5c(n4)OCCO5)C(C)(C)C)ncnc3[nH]2)c1C#N , thanks.
15

* * *

- ASSAY TARGET: 5-hydroxytryptamine receptor 1B (Homo sapiens) (UniProt P28222)
- Sequence (P28222 whole entry): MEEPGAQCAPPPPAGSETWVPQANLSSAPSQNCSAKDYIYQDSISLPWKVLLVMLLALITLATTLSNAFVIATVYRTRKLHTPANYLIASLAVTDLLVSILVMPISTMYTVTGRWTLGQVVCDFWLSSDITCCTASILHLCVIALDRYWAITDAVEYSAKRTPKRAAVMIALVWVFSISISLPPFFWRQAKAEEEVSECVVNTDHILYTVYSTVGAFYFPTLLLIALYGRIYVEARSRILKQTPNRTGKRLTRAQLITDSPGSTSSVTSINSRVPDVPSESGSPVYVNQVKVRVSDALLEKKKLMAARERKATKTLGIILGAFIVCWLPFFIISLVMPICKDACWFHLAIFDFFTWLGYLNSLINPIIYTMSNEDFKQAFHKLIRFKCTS
- MEASUREMENT NOTES: SafetyScreen: 5-HT1B Human Serotonin GPCR Binding Antagonist Radioligand LeadHunter Assay, catalogue number: 4376
- CONDITIONS USED: Test compound concentration 10.0 uM
RECORDED ENDPOINT: inhibition (%)
Return type: number; implicit unit %.

1) C[C@H](C(=O)O)[C@@H](NC(=O)c1ncnc2[nH]ccc12)c1ccc(Br)cc1: 1
2) CNC(=O)Cn1cc(-c2cc3c(N[C@@H](c4ccc5c(c4)S(=O)(=O)CCC5)C(C)C)ncnc3[nH]2)cn1: 0
3) Cc1nn(C)cc1-c1cc2c(N[C@H](c3ccc4c(c3)S(=O)(=O)CCC4)C(C)C)ncnc2[nH]1: 15

Next item in the queue.
# value lookup — system 5-hydroxytryptamine receptor 1B (Homo sapiens) (UniProt P28222), readout inhibition, item CNCc1cc(-c2cc3c(N[C@@H](c4ccc5c(c4)S(=O)(=O)CCC5)C(C)C)ncnc3[nH]2)co1
45

* * *

- ASSAY TARGET: Endothelin-1 receptor (Homo sapiens) (UniProt P25101)
- Sequence (whole entry): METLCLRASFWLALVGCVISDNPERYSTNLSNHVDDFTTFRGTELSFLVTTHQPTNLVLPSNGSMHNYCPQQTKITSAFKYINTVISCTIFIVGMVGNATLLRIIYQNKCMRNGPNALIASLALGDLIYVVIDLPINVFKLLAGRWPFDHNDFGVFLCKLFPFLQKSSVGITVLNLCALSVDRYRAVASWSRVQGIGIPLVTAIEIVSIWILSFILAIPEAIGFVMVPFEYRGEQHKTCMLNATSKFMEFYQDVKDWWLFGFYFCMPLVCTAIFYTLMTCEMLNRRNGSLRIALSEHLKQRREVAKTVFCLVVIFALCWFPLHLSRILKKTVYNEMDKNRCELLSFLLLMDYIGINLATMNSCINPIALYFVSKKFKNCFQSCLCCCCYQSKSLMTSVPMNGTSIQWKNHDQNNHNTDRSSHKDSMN
- MEASUREMENT NOTES: SafetyScreen: ETA Human Endothelin GPCR Binding Agonist Radioligand LeadHunter Assay, catalogue number: 54
- CONDITIONS USED: Test compound concentration 10.0 uM
RECORDED ENDPOINT: inhibition (%)
Write the number in % without appending the unit.

1) CC(C)[C@@H](Nc1ncnc2[nH]c(C(=O)N[C@@H]3CCN(C)C3)cc12)c1ccc2c(c1)S(=O)(=O)CCC2: -6
2) COc1ccc([C@H](Cc2nnn[nH]2)NC(=O)c2ncnc3[nH]ccc23)cc1: 2
3) CC(C)[C@H](Nc1ncnc2[nH]ccc12)c1ccc2c(c1)S(=O)(=O)CCC2: -1
4) Cc1nn(C)cc1-c1cc2c(N[C@H](c3ccc4c(c3)S(=O)(=O)CCC4)C(C)C)ncnc2[nH]1: -4
5) Cn1ncc(-c2cc3c(N[C@@H](c4ccc5c(n4)OCCO5)C(C)(C)C)ncnc3[nH]2)c1C#N: 9
6) C[C@H](C(=O)O)[C@@H](NC(=O)c1ncnc2[nH]ccc12)c1ccc(Br)cc1: -2
7) CNC(=O)Cn1cc(-c2cc3c(N[C@@H](c4ccc5c(c4)S(=O)(=O)CCC5)C(C)C)ncnc3[nH]2)cn1: -4
8) CC(C)[C@@H](Nc1ncnc2[nH]c(-c3cnn(C)c3C#N)cc12)c1ccc2c(n1)OCCO2: 5
9) CNCc1cc(-c2cc3c(N[C@@H](c4ccc5c(c4)S(=O)(=O)CCC5)C(C)C)ncnc3[nH]2)co1: -1

Then this molecule:
Could you tell me which inhibition is on file for CC(C)[C@H](Nc1ncnc2[nH]c(-c3cnn(C)c3C#N)cc12)c1ccc2c(n1)OCCO2 ?
42
